- Test system: NCI-H1734
- assay_name: relative viability (nuclei count vs DMSO), 5 days (fraction); higher = more cells survive
- condition: first compound 0.02 µM
Response field label: string, one of Met (relative viability strictly below 0.4) or Not met.

Problem: Is 0.4 strictly greater than the compound's reported relative viability? compound: CCNC(=O)c1noc(-c2cc(C(C)C)c(O)cc2O)c1-c1ccc(CN2CCOCC2)cc1 [Luminespib] + CC(C)C[C@H](NC(=O)[C@H](Cc1ccccc1)NC(=O)c1cnccn1)B(O)O [Bortezomib] (partner 0.002 µM)
Result: Not met

Problem: Is 0.4 strictly greater than the compound's reported relative viability? compound: CN1CCN(CCOc2cc(OC3CCOCC3)c3c(Nc4c(Cl)ccc5c4OCO5)ncnc3c2)CC1 [Saracatinib] + CCNC(=O)c1noc(-c2cc(C(C)C)c(O)cc2O)c1-c1ccc(CN2CCOCC2)cc1 [Luminespib] (partner 0.01 µM)
Result: Met

Problem: Is 0.4 strictly greater than the compound's reported relative viability? compound: CCNC(=O)c1noc(-c2cc(C(C)C)c(O)cc2O)c1-c1ccc(CN2CCOCC2)cc1 [Luminespib] + O=C(CCCCCCC(=O)Nc1ccccc1)NO [Vorinostat] (partner 1 µM)
Result: Not met

Problem: Is 0.4 strictly greater than the compound's reported relative viability? compound: CCNC(=O)c1noc(-c2cc(C(C)C)c(O)cc2O)c1-c1ccc(CN2CCOCC2)cc1 [Luminespib] + Nc1ncn([C@H]2C[C@H](O)[C@@H](CO)O2)c(=O)n1 [Decitabine] (partner 2 µM)
Result: Not met

Problem: Is 0.4 strictly greater than the compound's reported relative viability? compound: CCNC(=O)c1noc(-c2cc(C(C)C)c(O)cc2O)c1-c1ccc(CN2CCOCC2)cc1 [Luminespib] + Cc1cc(Nc2cc(N3CCN(C)CC3)nc(Sc3ccc(NC(=O)C4CC4)cc3)n2)n[nH]1 [Tozasertib] (partner 0.1 µM)
Result: Met

Problem: Is 0.4 strictly greater than the compound's reported relative viability? compound: CCNC(=O)c1noc(-c2cc(C(C)C)c(O)cc2O)c1-c1ccc(CN2CCOCC2)cc1 [Luminespib] + Nc1nc2[nH]cc(CCc3ccc(C(=O)N[C@@H](CCC(=O)O)C(=O)O)cc3)c2c(=O)[nH]1 [Pemetrexed] (partner 0.2 µM)
Result: Not met

Problem: Is 0.4 strictly greater than the compound's reported relative viability? compound: CN1CCN(CCOc2cc(OC3CCOCC3)c3c(Nc4c(Cl)ccc5c4OCO5)ncnc3c2)CC1 [Saracatinib] + CC(=O)c1c(C)c2cnc(Nc3ccc(N4CCNCC4)cn3)nc2n(C2CCCC2)c1=O [Palbociclib] (partner 0.5 µM)
Result: Met

Problem: Is 0.4 strictly greater than the compound's reported relative viability? compound: CCNC(=O)c1noc(-c2cc(C(C)C)c(O)cc2O)c1-c1ccc(CN2CCOCC2)cc1 [Luminespib] + CS(=O)(=O)CCNCc1ccc(-c2ccc3ncnc(Nc4ccc(OCc5cccc(F)c5)c(Cl)c4)c3c2)o1 [Lapatinib] (partner 2 µM)
Result: Not met
